- Test system: H. influenzae
measuredParameter: MIC (µg/mL)
Numbers only, in µg/mL.

Some solved entries appear below for comparison.
{"molecule": "CCCCC1CC(c2ccc(O)c(C)c2)(c2ccc(O)c(C)c2)C1", "MIC, µg/mL": 1}
{"molecule": "CCCC1CC(c2ccc(O)c(C)c2)(c2ccc(O)c(C)c2)C1", "MIC, µg/mL": 1}
{"molecule": "CCCC1CC(c2ccc(O)c(Cl)c2)(c2ccc(O)c(Cl)c2)C1", "MIC, µg/mL": 3}

For the 4 molecules below, give their MIC values.
1. CCCCC1CC(c2ccc(O)cc2)(c2ccc(O)cc2)C1
2. CCCC1CC(c2ccc(O)cc2)(c2ccc(O)cc2)C1
3. CCCCC1CC(c2ccc(O)cc2)(c2ccc(O)c(Cl)c2)C1 (stereo not shown)
4. CCCC1CC(c2ccc(O)cc2)(c2ccc(O)c(Cl)c2)C1 (stereo not shown)

Output:
13
13
6
6

----------
- Test system: S. pneumoniae
- assayRemarks: MIC, broth dilution method
- Type: cell-based
- assayConditions: Streptococcus pneumoniae, read-out: MIC Anti-Bacterial Activity
Field: MIC. Provide a value for each of the compounds that follow.
One number for each entry, in µg/mL.

Give MIC for each of the items listed below.
1. CCCCC1CC(c2ccc(O)cc2)(c2ccc(O)c(Cl)c2)C1 (stereo not shown) [Example 7]
2. CCCC1CC(c2ccc(O)cc2)(c2ccc(O)cc2)C1 [Example 3]
3. CCCC1CC(c2ccc(O)c(C)c2)(c2ccc(O)c(C)c2)C1 [Example 1]

Output:
[3, 6, 6]

Parameter requested: MIC. Apply to each item below.
1. CCCC1CC(c2ccc(O)cc2)(c2ccc(O)c(Cl)c2)C1 (stereo not shown) [Example 4]
2. CCCCC1CC(c2ccc(O)cc2)(c2ccc(O)cc2)C1 [Example 6]
3. CCCCC1CC(c2ccc(O)c(C)c2)(c2ccc(O)c(C)c2)C1 [Example 2]
4. CCCC1CC(c2ccc(O)c(Cl)c2)(c2ccc(O)c(Cl)c2)C1 [Example 5]

Output:
1: 3; 2: 6; 3: 6; 4: 3

----------
Would you kindly list melting point for each of these compounds?

Here are 3 compounds together with their reported answers.
{"compound": "Cc1cc(C2(c3cc(C)c(O)c(Cl)c3)C[C@@H](CC(C)(C)C)[C@@H]2C)ccc1O (relative stereo)", "measuredParameter": "melting point", "observed": "138 to 140 °C"}
{"compound": "CCCCCC1CC(c2ccc(O)c(CC)c2)(c2ccc(O)c(CC)c2)C1", "measuredParameter": "melting point", "observed": "109 to 111 °C"}
{"compound": "CC(C)(C)CC1CC(c2ccc(O)c(Cl)c2)(c2ccc(O)c(Cl)c2)C1", "measuredParameter": "melting point", "observed": "131 to 134 °C"}

Hi, could you look up melting point for each item in my list?
1. CCCC1CC(c2ccc(O)c(C)c2)(c2ccc(O)c(C)c2)C1
2. Cc1cc(C2(c3ccc(O)c(C)c3)CC(CC(C)(C)C)C2)ccc1O
3. C[C@H]1[C@@H](CC(C)(C)C)CC1(c1ccc(O)cc1)c1ccc(O)cc1 (relative stereo)
4. CCCCC1CC(c2cc(C)c(O)c(C)c2)(c2cc(C)c(O)c(C)c2)C1

Output:
130 to 132 °C
175 to 176 °C
79 to 81 °C
138 to 141 °C

For every record below, what is its melting point?
1. CCCCCC1CC(c2cc(C)c(O)c(C)c2)(c2cc(C)c(O)c(C)c2)C1
2. CC(C)(C)CC1CC(c2ccc(O)cc2)(c2ccc(O)cc2)C1

Output:
1. 115 to 117 °C
2. 182 to 184 °C

----------
Give measured MIC for each item. Keep answers brief.
- Tested on: E. faecalis
One number for each entry, in µg/mL.

{"molecule": "CCCC1CC(c2ccc(O)cc2)(c2ccc(O)c(Cl)c2)C1 (stereo not shown)", "MIC, µg/mL": 3}

For each entry beneath this line, provide reported MIC.
1. CCCC1CC(c2ccc(O)c(Cl)c2)(c2ccc(O)c(Cl)c2)C1
2. CCCCC1CC(c2ccc(O)cc2)(c2ccc(O)c(Cl)c2)C1 (stereo not shown)
3. CCCCC1CC(c2ccc(O)c(C)c2)(c2ccc(O)c(C)c2)C1
4. CCCC1CC(c2ccc(O)cc2)(c2ccc(O)cc2)C1
5. CCCC1CC(c2ccc(O)c(C)c2)(c2ccc(O)c(C)c2)C1
6. CCCCC1CC(c2ccc(O)cc2)(c2ccc(O)cc2)C1

Output:
1. 2
2. 2
3. 2
4. 13
5. 3
6. 3
